Reference for the values: patent US20240109974A1

- test.target: T1, Human TNFR2-His (Sino 10417-H08H) (human, UniProt P20333 23-257)
- T1 construct: Bought protein; also called recombinant human TNFR2 protein; not shown: His tag
- T1 sequence (looked up): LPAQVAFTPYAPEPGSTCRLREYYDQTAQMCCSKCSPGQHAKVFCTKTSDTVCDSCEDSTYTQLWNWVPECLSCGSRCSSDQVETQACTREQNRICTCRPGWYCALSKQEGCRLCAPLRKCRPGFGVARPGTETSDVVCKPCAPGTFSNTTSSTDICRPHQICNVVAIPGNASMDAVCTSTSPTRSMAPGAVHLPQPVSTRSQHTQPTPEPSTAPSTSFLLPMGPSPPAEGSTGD
- method.description: ELISA, human TNFR2-His coated; EC50 against 224-WT
Entries and their measured % Relative activity (WT antibody/test antibody) follow.
Write the answer as a number in %, unit excluded.

binder | numeric.readout
224-Hu7 (antibody, V domains shown, Humanized form of #224; also called VH9 + VL10) VH: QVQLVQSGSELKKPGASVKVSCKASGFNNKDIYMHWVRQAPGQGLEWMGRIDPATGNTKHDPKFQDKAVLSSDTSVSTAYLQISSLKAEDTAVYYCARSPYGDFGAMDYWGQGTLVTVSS VL: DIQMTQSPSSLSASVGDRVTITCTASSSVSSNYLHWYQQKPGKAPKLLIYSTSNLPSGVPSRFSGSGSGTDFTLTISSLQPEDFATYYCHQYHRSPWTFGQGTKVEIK | 110

Kindly review the next binder as well.
# binder 224-Hu2 (antibody, V domains shown, Humanized form of #224; also called VH9 + VL7) VH: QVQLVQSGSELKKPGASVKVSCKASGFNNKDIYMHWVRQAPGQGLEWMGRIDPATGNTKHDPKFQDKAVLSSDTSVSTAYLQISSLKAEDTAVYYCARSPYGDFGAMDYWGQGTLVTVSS VL: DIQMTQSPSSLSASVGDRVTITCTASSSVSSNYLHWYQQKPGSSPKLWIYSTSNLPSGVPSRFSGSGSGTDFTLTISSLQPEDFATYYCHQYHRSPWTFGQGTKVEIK ; its % Relative activity (WT antibody/test antibody) = 138
